Provenance of the data: paper PMC7038937

Kd overview
target: STAU1 dsRBD3/4 (Homo sapiens, UniProt O95793-2 102-274); assay: fluorescence anisotropy
Sequence (O95793 183-355): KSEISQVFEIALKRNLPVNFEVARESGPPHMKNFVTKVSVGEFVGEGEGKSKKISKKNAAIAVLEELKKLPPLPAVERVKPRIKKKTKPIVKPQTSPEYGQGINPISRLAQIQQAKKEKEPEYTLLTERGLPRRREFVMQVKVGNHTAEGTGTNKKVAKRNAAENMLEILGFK
The reply should contain only the number, in nM.

Guide cases for Kd, answers given:
# binder, readout_number
records = [
    ("GGCAGAAGCUGCCUCUUCGGAGGCAGUUUCUGCC (structured_RNA) [top 2/3 ARF1 SBS (sARF1 SBS)]", 17.8),
    ("GGCGAGUGCCAGAAGCUGUCUCCUUCGGGAGGCAGUUUCUGGUACUCGCC (structured_RNA) [long ARF1 SBS (19 bp, UUCG loop)]", 26.5),
]

Q: // query Kd value for entry GGAGUGCCAGAAGCUACGGUUUCUGGUACUCC (structured_RNA) [bottom 2/3 ARF1 SBS]
A: 31
